Target: KRAS G13D (Homo sapiens (Human), UniProt P01116+P62937, G13D)
Sequence (P01116 other isoform, or with tags, fused parts or gaps G13D): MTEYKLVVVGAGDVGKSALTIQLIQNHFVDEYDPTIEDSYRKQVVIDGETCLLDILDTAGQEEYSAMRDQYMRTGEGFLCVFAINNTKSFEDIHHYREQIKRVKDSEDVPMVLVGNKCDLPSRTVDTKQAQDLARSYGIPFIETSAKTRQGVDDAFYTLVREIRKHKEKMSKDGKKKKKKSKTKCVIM
Sequence (P62937 whole entry): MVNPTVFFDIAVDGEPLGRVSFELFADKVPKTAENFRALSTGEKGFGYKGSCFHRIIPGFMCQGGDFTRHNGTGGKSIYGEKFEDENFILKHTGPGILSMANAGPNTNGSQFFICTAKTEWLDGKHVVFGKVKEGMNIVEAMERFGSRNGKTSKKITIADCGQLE
Assay: Ras-Raf disruption/FRET/MOA assay, KRAS G13D
Assay type: biochemical
Settings: read-out: KRAS G13D FRET IC50
experimentalReadout: IC50

Query string: Quick one: IC50 for CCn1c(-c2cnccc2COC)c2c3cc(ccc31)-c1cc(O)cc(c1)C[C@H](NC(=O)[C@@H](CN(C)C(=O)[C@@H]1CN1)C(C)C)C(=O)N1CCC[C@H](N1)C(=O)OCC(C)(C)C2 ?
Result string: > 10 µM

Query string: Do the same for CCn1c(-c2cccnc2COC)c2c3cc(ccc31)-c1cc(O)cc(c1)C[C@H](NC(=O)[C@H](C(C)C)N(C)C(=O)CNC1=NCCO1)C(=O)N1CCC[C@H](N1)C(=O)OCC(C)(C)C2 please
Result string: 1 to 10 µM

Query string: Next molecule: CCn1c(-c2cnccc2COC)c2c3cc(ccc31)-c1cc(O)cc(c1)C[C@H](NC(=O)[C@H](C(C)C)N(C)C(=O)CCN(C)C(=O)[C@H]1CN1)C(=O)N1CCC[C@H](N1)C(=O)OCC(C)(C)C2 (single isomer, unassigned)
Result string: 0.1 to 1 µM

Query string: Proceed to CCn1c(-c2cccnc2[C@H](C)OC)c2c3cc(ccc31)-c1cccc(c1)C[C@H](NC(=O)[C@H](C(C)C)N1CC[C@@H](CN=C=NCCOC)C1)C(=O)N1CCC[C@H](N1)C(=O)OCC(C)(C)C2
Result string: > 10 µM

* * *

Assignment: determine reported IC50 for the given compounds.
Biological target: KRAS Q61H (Homo sapiens (Human), UniProt P01116+P62937, Q61H)
Sequence (P01116 other isoform, or with tags, fused parts or gaps Q61H): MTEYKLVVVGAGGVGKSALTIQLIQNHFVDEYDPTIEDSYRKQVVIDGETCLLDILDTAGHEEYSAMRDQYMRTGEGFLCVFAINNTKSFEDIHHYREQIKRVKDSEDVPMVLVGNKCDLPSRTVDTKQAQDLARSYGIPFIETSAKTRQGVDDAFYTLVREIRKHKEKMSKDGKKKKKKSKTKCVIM
Sequence (P62937 whole entry): as the sequence (P62937 whole entry) above
Test: Ras-Raf disruption/FRET/MOA assay (BRAF RBD, Cyclophilin A)
Format: biochemical

Query string: Please look up its IC50: CCn1c(-c2cccnc2[C@H](C)OC)c2c3cc(ccc31)-c1csc(n1)C[C@H](NC(=O)C1(F)CC1)C(=O)N1CCC[C@H](N1)C(=O)OCC(C)(C)C2
Result string: 100 to 1000 nM

Query string: Moving on to the next compound: CCn1c(-c2cccnc2[C@H](C)OC)c2c3cc(ccc31)-c1csc(n1)C[C@H](NC(=O)[C@H](C(C)C)N(C)C(=O)N1C3COCC1C3)C(=O)N1CCC[C@H](N1)C(=O)OCC(C)(C)C2
Result string: 10 to 100 nM

Query string: Try this compound too: CCn1c(-c2cccnc2[C@H](C)OC)c2c3cc(ccc31)-c1csc(n1)C[C@H](NC(=O)[C@H](C(C)C)N(C)C(=O)N1CC3(CC(NCCOC)C3)C1)C(=O)N1CCC[C@H](N1)C(=O)OCC(C)(C)C2
Result string: 100 to 1000 nM

Query string: # iterate: CCn1c(-c2cccnc2[C@H](C)OC)c2c3cc(ccc31)-c1csc(n1)C[C@H](NC(=O)[C@H](C(C)C)N(C)C(=O)N1CCCC3(CN(C)C3)C1)C(=O)N1CCC[C@H](N1)C(=O)OCC(C)(C)C2
Result string: 10 to 100 nM

Query string: Next entry: CCn1c(-c2cccnc2[C@H](C)OC)c2c3cc(ccc31)-c1csc(n1)C[C@H](NC(=O)[C@H](C(C)C)N(C)C(=O)N1CC(S(=O)(=O)N(C)C)C1)C(=O)N1CCC[C@H](N1)C(=O)OCC(C)(C)C2
Result string: 10 to 100 nM

Query string: What would you report for CCn1c(-c2cccnc2[C@H](C)OC)c2c3cc(ccc31)-c1cc(O)cc(c1)C[C@H](NC(=O)[C@H](C(C)C)N(C)C(=O)[C@H]1CCC(=O)O1)C(=O)N1CCC[C@H](N1)C(=O)OCC(C)(C)C2 ?
Result string: 10 to 100 nM

Query string: Likewise for CCn1c(-c2cccnc2[C@H](C)OC)c2c3cc(ccc31)-c1csc(n1)C[C@H](NC(=O)[C@H](C(C)C)N(C)C(=O)N(C)C[C@H]1CCN1C)C(=O)N1CCC[C@H](N1)C(=O)OCC(C)(C)C2 ?
Result string: 100 to 1000 nM

Query string: Now this one: CCn1c(-c2cccnc2[C@H](C)OC)c2c3cc(ccc31)-c1csc(n1)C[C@H](NC(=O)[C@H](C(C)C)N(C)C(=O)N1CCN(C)[C@@H](c3ccccc3)C1)C(=O)N1CCC[C@H](N1)C(=O)OCC(C)(C)C2
Result string: 100 to 1000 nM

Query string: Moving on to CCn1c(-c2cccnc2[C@H](C)OC)c2c3cc(ccc31)-c1csc(n1)C[C@H](NC(=O)[C@H](C(C)C)N(C)C(=O)N1C[C@H]3CCN(C)[C@H]3C1)C(=O)N1CCC[C@H](N1)C(=O)OCC(C)(C)C2
Result string: 100 to 1000 nM
